Tested on: RARg:RXRa (NR concentration 270 nM, RXRa partner concentration 90 nM)
experimental protocol: PBM binding z-score (relative to random genomic background probes); higher = stronger binding; sequences stand for … in GC…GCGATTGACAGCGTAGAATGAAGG
value type: PBM binding z-score
Write the number on its own, no unit after it.

Consider the worked cases shown below.
- residue string: "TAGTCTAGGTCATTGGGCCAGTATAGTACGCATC"
  PBM binding z-score: 3.92
- residue string: "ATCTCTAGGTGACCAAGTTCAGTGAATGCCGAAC"
  PBM binding z-score: 1.24
- residue string: "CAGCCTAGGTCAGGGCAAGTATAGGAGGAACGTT"
  PBM binding z-score: 3.37

Prompt: Could you please provide reported PBM binding z-score for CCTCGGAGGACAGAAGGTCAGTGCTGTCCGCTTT ? Thanks!
Response: 3.14

Prompt: Item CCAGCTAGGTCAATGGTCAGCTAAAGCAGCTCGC : provide PBM binding z-score
Response: 3.55

Prompt: For the sequence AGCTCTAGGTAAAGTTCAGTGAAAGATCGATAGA , report PBM binding z-score.
Response: 1.94

Prompt: Give the measured PBM binding z-score for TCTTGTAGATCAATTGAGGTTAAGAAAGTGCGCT
Response: 0.568

Prompt: For the sequence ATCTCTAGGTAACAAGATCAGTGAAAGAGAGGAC , report PBM binding z-score.
Response: 0.574

Prompt: Please give the documented PBM binding z-score of GAAACGAGGGCAAAGTTGATAGCATCTGTCGACG
Response: 2.11

Prompt: Specify measured PBM binding z-score for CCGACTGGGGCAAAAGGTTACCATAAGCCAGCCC .
Response: 3.72

Prompt: Return PBM binding z-score (reported value) for this sequence: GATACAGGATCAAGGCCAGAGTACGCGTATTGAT
Response: 0.189

Prompt: Using the record for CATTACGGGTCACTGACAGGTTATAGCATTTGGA , state its measured PBM binding z-score.
Response: 5.97

###

Tested on: RARg:RXRa (NR concentration 270 nM, RXRa partner concentration 90 nM)
experimental protocol: PBM binding z-score (relative to random genomic background probes); higher = stronger binding; sequences stand for … in GC…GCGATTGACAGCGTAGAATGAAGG
Answer Not met if PBM binding z-score is under 5, and Met if it is 5 or more.

// below: answered sequences
- residue string: "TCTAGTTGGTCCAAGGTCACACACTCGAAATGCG"
  tested target: "RARg:RXRa (NR concentration 270 nM, RXRa partner concentration 90 nM)"
  class label: "Not met"
- residue string: "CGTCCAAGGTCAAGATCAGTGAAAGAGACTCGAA"
  tested target: "RARg:RXRa (NR concentration 270 nM, RXRa partner concentration 90 nM)"
  class label: "Met"
- residue string: "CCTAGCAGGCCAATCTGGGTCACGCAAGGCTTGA"
  tested target: "RARg:RXRa (NR concentration 270 nM, RXRa partner concentration 90 nM)"
  class label: "Not met"
- residue string: "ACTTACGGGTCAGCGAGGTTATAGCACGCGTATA"
  tested target: "RARg:RXRa (NR concentration 270 nM, RXRa partner concentration 90 nM)"
  class label: "Not met"
- residue string: "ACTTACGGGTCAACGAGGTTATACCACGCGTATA"
  tested target: "RARg:RXRa (NR concentration 270 nM, RXRa partner concentration 90 nM)"
  class label: "Met"

Now examine the next entry.
Prompt: Does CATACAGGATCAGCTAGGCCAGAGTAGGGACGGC have a reported PBM binding z-score of at least 5?
Response: Not met

###

Test system: FXR:RXRa (NR concentration 270 nM, RXRa partner concentration 90 nM)
experimental protocol: PBM binding z-score (relative to random genomic background probes); higher = stronger binding; sequences stand for … in GC…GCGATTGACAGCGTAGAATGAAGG
A collection of sequences and their measured PBM binding z-score
Could you respond with only the numeric value?

Prompt: Assign PBM binding z-score to the following record: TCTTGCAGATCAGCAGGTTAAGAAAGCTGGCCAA
Response: -0.157

Prompt: Provide measured PBM binding z-score value, entry: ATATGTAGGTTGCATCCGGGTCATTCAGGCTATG
Response: 1.21

Prompt: Report PBM binding z-score for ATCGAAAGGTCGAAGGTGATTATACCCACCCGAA
Response: 4.31

###

System: VDR homodimer (NR concentration 270 nM)
experimental protocol: PBM binding z-score (relative to random genomic background probes); higher = stronger binding; sequences stand for … in GC…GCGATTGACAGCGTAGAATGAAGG
Label 1 when PBM binding z-score is at or above 1; anything below gets 0.

- residue string: "CCTACTGCGCCAAAGGTCATTGATTCCAATGCTC"
  tested target: "VDR homodimer (NR concentration 270 nM)"
  class label: 1
- residue string: "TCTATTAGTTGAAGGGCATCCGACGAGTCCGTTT"
  tested target: "VDR homodimer (NR concentration 270 nM)"
  class label: 1
- residue string: "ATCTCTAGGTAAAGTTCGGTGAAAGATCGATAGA"
  tested target: "VDR homodimer (NR concentration 270 nM)"
  class label: 0
- residue string: "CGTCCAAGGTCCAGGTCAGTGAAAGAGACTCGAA"
  tested target: "VDR homodimer (NR concentration 270 nM)"
  class label: 0
- residue string: "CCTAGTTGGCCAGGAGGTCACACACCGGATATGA"
  tested target: "VDR homodimer (NR concentration 270 nM)"
  class label: 1

Prompt: Reported PBM binding z-score at or above 1? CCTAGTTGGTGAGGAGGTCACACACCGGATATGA
Response: 1

Prompt: Is the recorded value of PBM binding z-score equal to or greater than 1 for this sequence? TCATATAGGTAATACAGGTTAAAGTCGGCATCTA
Response: 0

Prompt: Decide: is the reported value of PBM binding z-score for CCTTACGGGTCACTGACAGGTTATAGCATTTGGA equal to or greater than 1?
Response: 1

Prompt: Textbook exercise: given the entry ACAGACAGGCGATGAAGGTAACTCAGGCTATCAT , state whether its PBM binding z-score is greater than or equal to 1.
Response: 0

Prompt: Please tell me: is the sequence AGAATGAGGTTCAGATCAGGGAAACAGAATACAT at or over 1 in terms of PBM binding z-score?
Response: 1

Prompt: Textbook exercise: given the entry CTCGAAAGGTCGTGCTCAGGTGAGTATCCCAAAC , state whether its PBM binding z-score is greater than or equal to 1.
Response: 0

###

System: THRa homodimer (NR concentration 90 nM)
experimental protocol: PBM binding z-score (relative to random genomic background probes); higher = stronger binding; sequences stand for … in GC…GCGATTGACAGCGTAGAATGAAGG
Please map values of PBM binding z-score to classes as shown: low (below -0.09), middle (-0.09 to below 0.8), high (0.8 or more)

Before answering, review these 8 worked examples.
- residue string: "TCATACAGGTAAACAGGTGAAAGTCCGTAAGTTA"
  class label: "middle"
- residue string: "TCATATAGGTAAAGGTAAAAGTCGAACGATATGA"
  class label: "low"
- residue string: "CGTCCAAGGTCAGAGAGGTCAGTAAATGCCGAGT"
  class label: "high"
- residue string: "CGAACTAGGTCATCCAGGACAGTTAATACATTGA"
  class label: "high"
- residue string: "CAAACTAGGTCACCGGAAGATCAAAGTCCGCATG"
  class label: "high"
- residue string: "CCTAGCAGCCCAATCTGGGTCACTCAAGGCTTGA"
  class label: "middle"
- residue string: "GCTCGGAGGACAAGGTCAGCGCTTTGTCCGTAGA"
  class label: "high"
- residue string: "TCTTGTAGATCAACAGGAGCTTAAGAAAGATCGA"
  class label: "low"

Prompt: Given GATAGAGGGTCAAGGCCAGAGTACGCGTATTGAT , name the class its PBM binding z-score places it in.
Response: middle

Prompt: Lab note: sort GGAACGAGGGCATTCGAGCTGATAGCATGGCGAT into the matching PBM binding z-score band.
Response: low

Prompt: State the class of the sequence shown: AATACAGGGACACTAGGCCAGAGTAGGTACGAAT
Response: middle

Prompt: Which category does the recorded PBM binding z-score put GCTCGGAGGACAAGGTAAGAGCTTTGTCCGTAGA in?
Response: low

Prompt: Just checking, what class would you give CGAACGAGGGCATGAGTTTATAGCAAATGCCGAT here?
Response: middle

Prompt: Into which category would you place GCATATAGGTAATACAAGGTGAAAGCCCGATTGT ?
Response: middle

Prompt: Assign a category based on measured PBM binding z-score for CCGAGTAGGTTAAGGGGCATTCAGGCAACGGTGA and give only the class name.
Response: middle

Prompt: Quick check: band for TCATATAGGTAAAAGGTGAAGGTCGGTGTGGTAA
Response: high
